Consider the following compounds; for each one, report its growth inhibition.
# measurement-protocol: NCI Yeast Anticancer Drug Screen. Data for the bub3 strain (AID 167)
# settings: S. cerevisiae bub3 mutant strain, at 50.0 µM (retest, dose inferred, filed as 5.0), active compounds read high
This is part of a sample that, as a whole, favours compounds with a hit. Of some 79,000 tested, about 15% had one in any assay.
Just the number please, in %, no unit attached.

Exercise: Consider the compound shown here: `CC1(C)CC(=N/O)/C(=N/O)C(=N\NC(N)=S)/C1` What is its recorded growth inhibition?
Solution: 47

Exercise: Another compound: `Cc1cc([N+](=O)[O-])cc(C)[n+]1[O-]`
Solution: -14

Exercise: Another compound: `Clc1ccc2ccc3cccnc3c2n1`
Solution: 98

Exercise: Another compound: COC(C(=O)O)c1ccccc1 (stereo not drawn)
Solution: 1

Exercise: Another compound: `CCN(CC)CCOc1ccc(C=C2c3ccccc3-c3ccccc32)cc1`
Solution: 99

Exercise: Another compound: `FC(F)(F)c1cccc(Nc2ccc3cnc4ccccc4c3c2)c1`
Solution: 95

Exercise: Another compound: `COc1ccc(Cc2nc3ccc(Cl)cc3[nH]2)cc1`
Solution: 44

Exercise: Another compound: CCC1CCC(CC)C1O (stereo not drawn)
Solution: 2

Exercise: Another compound: `COc1cc(CNc2nc3ccccc3nc2-c2cccs2)cc(OC)c1OC`
Solution: -8

Exercise: Another compound: O=[N+]([O-])c1ccc(C(Cl)Cc2ccc(Cl)cc2)cc1 (stereo not drawn)
Solution: 82

Exercise: Another compound: `CSC(=S)N/N=C(C)/C=C/c1ccccc1`
Solution: 98

Exercise: Another compound: `O=C1OC(c2ccccc2)(c2ccccc2)Cc2ccccc21`
Solution: -13

Exercise: Another compound: `Fc1ccc(CSC(=S)Nc2ccc(Br)cc2)cc1`
Solution: 99
